Test: yeast display, Sf9 membrane polyspecificity reagent, FACS + sequencing; frameworks hold sequencing errors
experimental_endpoint: polyreactivity (PSR sort gate)

INSERT INTO assay_data (sequence_string, result) VALUES
  ('QVQLVESGGGLVQAGGSLRLSCAASGFTFTYNDMGWYRQAPGKEREFVAAISSTGGSTYYADSVKGRFTISRDNAKNTVYLQMNSLKPEDTAVYYCAAEDSWYWDAWFDYWGQGTQVTVSS', 'low polyreactivity'),
  ('QVQLVESGGGLVQAGGSLRLSCAASGFTIYRYAMGWYRQAPGKERELVATIRRGGSTKYADSVKGRFTISRDNAKNTVYLQMNSLKPEDTAVYYCNARYYAAPDKYYYWGQGTQVTVSS', 'low polyreactivity');

====

Assay: yeast display, Sf9 membrane polyspecificity reagent, FACS + sequencing; frameworks hold sequencing errors
experimental_endpoint: polyreactivity (PSR sort gate)

INSERT INTO results (sequence_string, result) VALUES
  ('QVQLVESGGGLVHAGGSLRLSCAASGFIFTKNAMGWYRQAPGKDRELVAAITSSGGNTYYADSVKGRFTISRDNAKNTVYLQMNSLKPEDTAVYYCAASRFLRMYWGQGTQVTVSS', 'high polyreactivity'),
  ('QVQLQESGGGLVQAGGSLRLSCAASGNIFEADIMGWNHQAQGKERELVASITDGGSTNYADSVKGRFTINRDNAKNNVYLQMNSLKPEDTAVYYCAAFAYPDIPTYFDYDIFTYWGQGTQVTVSS', 'high polyreactivity'),
  ('QVQLVESGGGLVQAGGSLRLSCAASGSIFYLYAMGWYRQAPGKERELVATISLSSGSTYADSVKGRFTISRDNAKNTVYLQMNSLKPDDTAVYYCAKDLSRWGYNEYDYWGQGTQVTLSS', 'low polyreactivity'),
  ('QVQLVESGGGLVQEGGSLRLSCAASGRTFWYYGMGWYRQAHGKERELVAAISRSGGRTSYADSVKGRFTISRDNAKNTVYLQMIRLKPEDTAVYYCATDGYYRYGYWGQGTQVTVSS', 'high polyreactivity');

Please look at the following sequence next.
Look up polyreactivity (PSR sort gate) for this sequence: QVQLVESGGGLVQAGGSLRLSCAASGRIFRVYAMGWYRQAPGKERELVAAISSSGGSTYYADSVKGRFTISRDNAKNTVYLQMNSLKPEDTAVYYCAAGGLHTIQRPGYYYWGLGTQVTVSS
low polyreactivity

====

Test: yeast display, Sf9 membrane polyspecificity reagent, FACS + sequencing; frameworks hold sequencing errors
experimental_endpoint: polyreactivity (PSR sort gate)

INSERT INTO results (sequence_string, experimental_endpoint, result) VALUES
  ('QVQLVESVVGLVQAGCSLRLSCDASGFIFYYYTMGWYRQATGKERELVAAISRSGGRTYYADSVKGLFTISRDYAKNTVYLQMNSMKPDDTAVYYCAADTPYQTPPQQYVEYDYWGQCTQVTVSS', 'polyreactivity (PSR sort gate)', 'high polyreactivity'),
  ('QVQLVESGGGLVQAGGSLRLSCAASGSIFLFNAMGWYRQAPGKERELVAAINRDDSTYYADSVKGRFTISRDNAKNTVYLLMISLKPEDTAVYYCAAPVLHAYYGYGYWGQGTQVTVSS', 'polyreactivity (PSR sort gate)', 'low polyreactivity'),
  ('QVQLVESGGGLVQAGGSLRLSCAASGRTFIPYAMGWYRQAPGKERELVATIRRGGSTYYADSVKGRFTISRDNAKNTVYLQMYSLKPEDTAVYYCAATRYSFGPRRVDYWGQGTQVTVSS', 'polyreactivity (PSR sort gate)', 'high polyreactivity'),
  ('QVQLVESGGGLVQAGGSLRLSCAASGSIFRGNAMGWYRQAPGKEREMVAAISVSGSRTYYADSVKGRFTISRDNAKNTVYLQMNSLIPEDTAVYYCNAVLRVKGSGDFDYWGEGTQVTVSS', 'polyreactivity (PSR sort gate)', 'high polyreactivity'),
  ('QVQLVESGGGLVQAGGSLRLTCAASGSTIADNAMGWYRPAPGTERELVAGITRRGGSTYYADSVKGRFTISRDNAKNTVYLQMNSLKPEDTAVYYCNKGPVRGRYSVWPIEMDYWGQGTQVTVSS', 'polyreactivity (PSR sort gate)', 'low polyreactivity'),
  ('QVQLVESGGGLVQAGGSLRLICAASGRIFGSYVMGWYRQAPGKERELVAAISFSGDTTYYADSVKGRFTISRDNAKNTVYLQMNSLKPDDTAVYYCAAEFPQGYYAFKYDYWGQGTQVTVSS', 'polyreactivity (PSR sort gate)', 'high polyreactivity'),
  ('QVQLVESGGGLVQAGGSLRLSCAASGRTFYYYAMGWYRQAPGKEREFVAAITYRGDSTNYADSVKGRFTISRDNAKNTVYLQMNSLKPEDTAVYYCAADSPYQIYYYWGQGTQVTVSS', 'polyreactivity (PSR sort gate)', 'low polyreactivity'),
  ('QFQLVESGGGLVQAGGSLRLSCAASGRIFGVYAMGWYRQAPVKERQLVATISLSAGRTYYADSVKGRFTISRDNAKNTVYLQMNSLKPEDTAVYYCAAQSNYSIRRHYYTFRYSYDYWGQGTQVTVSS', 'polyreactivity (PSR sort gate)', 'high polyreactivity');

Look up polyreactivity (PSR sort gate) for this sequence: QVQLVESGGGLVQAGGSLRLSCAASGSIFYINAMVWYRPAPGTERELLAAITSGGTYYADSVKGRFTISRDNAKNTVYLQMNSLKPEDTAVDYCAADREGTPLFDYWGQGTQVTVSS
low polyreactivity

Would you mind doing QVQLVESGGGLVQAGGSLRLICAASGSIFVIYAMGWYRQAPGKERELVAAITSGGNTTYADSVKGRFTISRDNAKNTVSLQMNSLKPEDTAVYYCSADYPWEYDYWGQGTQVTVSS as well?
low polyreactivity

Would you mind doing QVQLVESGGGLVQAGGSLRLSCAPSGFTFVFYAMGWYRQAPGKERELVAAISSRGGSTYYADSVKGRFTISRDNAKNTVYLQMNSLKPEDTAVYYCNVVSTYWTTYEEYYWGQGTQVTVSS as well?
high polyreactivity

====

Assay: yeast display, Sf9 membrane polyspecificity reagent, FACS + sequencing; frameworks hold sequencing errors
experimental_endpoint: polyreactivity (PSR sort gate)

INSERT INTO assay_data (sequence_string, experimental_endpoint, result) VALUES
  ('QVQLVESGGGLVQAGGSLRLSCAASGIIFVSNAMGWYRQAPGKERELVATINWSDDSTYYADSVKGRFTISRDNAKNTVYLQMNSLKPEDTAVYYCNKELYPVGDYEYWGLGTQVTVSS', 'polyreactivity (PSR sort gate)', 'low polyreactivity'),
  ('QVQLVESGGGLVQAGGSLRLSCAASGSTFPPNAMGWSRQAPGKERELVAAISERGGSTYYADSVKGRFTISRDNAKNTVYLQMNSLKPEDTAVYYCAVDYYYLMYWGQGTQVTVSS', 'polyreactivity (PSR sort gate)', 'low polyreactivity');

====

Assay: yeast display, Sf9 membrane polyspecificity reagent, FACS + sequencing; frameworks hold sequencing errors
experimental_endpoint: polyreactivity (PSR sort gate)

Worked examples follow.
INSERT INTO results (sequence_string, result) VALUES
  ('QVQLVESGGGLVQAGGSLRLSCAASGRTFRFNAMGWYRQAPGKERELVAAISSRGGNTYYADSVKGRFTISRDNAKNTVYLQMNSLKPVDTSVYYCNKDLNYWGYAKYYGYYYWGQGTQVTVSS', 'high polyreactivity'),
  ('QVQLVESGGGLVQAGGSLRLSCAASGSIFYGNTMGWYRQAPGKERELVAAIDYRGDSTYYADSVKGRFTISRDNAKNTVYLQMNSLKPVDTAVYYCAADQTPVGQVYYGTLSIRDYWGQGTQVSVSS', 'low polyreactivity'),
  ('QVQLVESGGGLVQAGGSLRLSCAASGSTFYYYAMGWYRQAPGKERELVASINYSAGRTYYADSVKGRFTISRDNAKNTVYLQMNSLKPEDTAVYYCATGYPYHVNRYYYWGQGTQVTVSS', 'high polyreactivity'),
  ('QVQLVESGGGLVQAGGSLRLSCAASGRIFVLYAMGWYRQAPGKERELVADITFDGGSTYYADSVKGRFTISRDNAKNTVYLQMNSLKPEDTAVSFCAARYRWSRKRYNDYDYWGQGTQVSVSS', 'high polyreactivity');

Please look at the following sequence next.
Look up polyreactivity (PSR sort gate) for this sequence: QDQLVESAGGLVQAGGSLRLSCAASARIFRYNAIGCYRQGPGKERVLVASITSAGSTNYADSVKGRFTISRDNAKNTVYLQMNSLKPEDTAVYYCNKRRAYGYYLFDYWGLGTQVTVSS
high polyreactivity

====

Assay: yeast display, Sf9 membrane polyspecificity reagent, FACS + sequencing; frameworks hold sequencing errors
experimental_endpoint: polyreactivity (PSR sort gate)

Worked examples follow.
INSERT INTO measurements (sequence_string, result) VALUES
  ('QVQLVESGGGLVQAGGSLRLSCAASGSTFQPYAMGWYRQAPGKERELVAAITFSGGSTYYADSVKGRFTISRDNAKNTVYLQMNSLKPEDTAVYYCAAYRRPDYGSWGQGTQVTVSS', 'high polyreactivity'),
  ('QVQLVESGGGLVQAGGSLRLSCAASGFIFYSNDMGWYRQAPGKERELVAAITSSGGSTYYADSVKGRFTISRDNAKNTVYLQMNSLKPEDTAVYYCNADCTTFGLYSWGQGTQVTVSS', 'low polyreactivity'),
  ('QVQLVESGGGLVQAGGSLRLSCAASGRTFSVYAMGWYRQAPGKERELVAAISGRGGRTYYADSVKGRFTISRDNAKNTVYLQMNSLKPEDTAVYYCTADVGVYHDDYWGQGTQVTVSS', 'high polyreactivity'),
  ('QLKHEESRGGLVQAGGSLRLSCAASGSTIYTYVMGWYRQAPGNERELVAAISWSGSSTYYADSVKGRFTISRDNAKNTVYLHMNSLKPEDTAVYYCNADPSQHTSAGYSSYEYYYWGQGTQVTVSS', 'low polyreactivity'),
  ('QVQLVESGGGLVQAGGSLRLSCAASGFIFASYAMGWYRQAPGKERELVAAISWRGGSTYYADSVKGRFTISRDNAKNTVYLQMNSLKPEDTAVYYCKAYVYVGTGRGYDTLDYWGQGTQVTVSS', 'low polyreactivity');

Look up polyreactivity (PSR sort gate) for this sequence: QVQLVESGAGLVQAGGSLRLSCAASGSTFSYYTMGWYRHAPGKERELVAAITSGGPTNYADSVKGRFTISRDNAKNTVYLQMNSLKPEDTAVYYCAAALYYGWGYYYWGQGTQVTVSS
low polyreactivity

Would you mind doing QVQLVESGGGLVQAGGSLRLNCAASGSTFPKYAMGWYRQAPGKERELVAAISWSGDSTYYADSVKGRFTISRDNAKNSVYLKMNRLKPEDTAFYYCAAYNFIHAGPWVYEYWGQCTQVTVSS as well?
low polyreactivity

Would you mind doing QVKLVESGGGLVQAGGSLRLSCAASGFTVYGYSMGWYRQEPGKERELVAAITSVGDTNYADSVKGRFTISRDNAKNNVYLQINSLKPEDTAVYYCKADPVYYFYWWTGDYWGQGTQETVSS as well?
low polyreactivity

Would you mind doing QVQLVESGGGLVQAGGSLRLSCAASGSIFTGYAMGWYRQAPGKERELVAGISWGGTSTYYADSVKGRFTISRDNAKYTVYLQMNSLKPEDTAVYYCSAVRGKYGYLTTPDWFDYWGQGTQVTVSS as well?
high polyreactivity

Would you mind doing QVQLVESGGGLVQAGGSLRLSCAASGFIIGGYAMGWYRQAPGKERELVASITSGGRTYYADSVKGRFSISRDNAKNTVFLQMNSLKPEDTAVYDCAARQQTYYYKIYYWGQGSQVTVSS as well?
high polyreactivity

Would you mind doing QVQLVESGGGLVQAGGSLRLSCAASGRILNINAMGWYRQAPGKERELVAAITWRGGRTFYADSVKGRFTISRDNAKNTVYLQMNSLKPEDTAVYYCAKGYRGYSYGYWGQGTQVTVSS as well?
high polyreactivity

Would you mind doing QVQLVESGGGLVQAGGSLRLSCAASGRTFSVNVMGWYRQAPGKERELVAAISWSGGNTYYADSVKGRFTISRDNAKNTVYLQMNSLKPEDTAVYYCNTDFADSNYDSSYGYWGQGTQVTVSS as well?
low polyreactivity

Would you mind doing QVQLVESGGGLVQAGGSLRLSCAASGSIFDRNAMGWYRQAPGKERELVAAINSNAGITYYADSVKGRFTISRDNAKITVYLQMNSLKPEDTAVYYCAADIRVVYREDHWGQGTQVTVSS as well?
low polyreactivity

Would you mind doing QVQLVESGGGLVQAGGSLRLSCAASGFTFGENAMGWYRQAPGKERELVATISDSGDSTYYADSVKGRFTISRDNAKNTVYLQMNSLKPEDTAVYYCAAPLPHRGYDEGYWGQGTQVTVSS as well?
low polyreactivity

Would you mind doing QVQLVESGGGLVQAGGSLRLSSAASGRIFYHNTMGWYRQAPGKERELVAAIRSGSSTYYADSVKGRFTISRDNAKNTVYLQMNSLKPEDTAVYYCNARPWYSWGVDYDYWGQGTQVTVSS as well?
low polyreactivity

Would you mind doing QVQQQESAGGLVQAGGSLRLSCAASGNIFVDAYMGWYRQAPGKERELVATFAPADSVKGRFTISRDNAKNTVYLQMYSLKPEDTAVYYCAAFTGYSSVFGYWGQGIQVTVSS as well?
high polyreactivity

Would you mind doing QVQLVDSGGGLVQAGGSLRLSCAASGITFYYYAMGWYRQAPGKERELVAAISSRGGSTYYADSVKGRFRISRDNAKNTVYLQMNSLNPEDTAVYYCAAGRVGAWTFDYWGEGTQVTVSS as well?
high polyreactivity

Would you mind doing QVQLVESGGGLLQAGGSLRLSCAASGSIFQYKAMGWYRQAPGKERELVAAINGGGSTYYADSVKGRFTISRDNEKNTVYLQMNSLKPEYTAVYYCAADGGAYYYRGPGKFGIEDSWGQGTQVTVSS as well?
low polyreactivity

Would you mind doing QVQLVESGGGLVQAGGSLRLSCAASGSIFAAYTMGWYRQAPGKERELVATISSGGSTYYADSVKGRFTISRDNAKNTVYLQMNSLKPEDTAVYYCAAVAYTYTEYEYWGQGTQVTVSS as well?
low polyreactivity

Would you mind doing QVQLVESGGGLVQAGGSLRLSCASSGITFWSYAMVWYRQAPGKERELVAAISRGGDSTYYADSVKGRFTISRDNAKNTVYLQMNSLKPEDTAVYDCAALRPREEYYWGHGTQVTVSS as well?
high polyreactivity

Would you mind doing QVQLVESGGCLVQAGGSLRLSCAASVRIFQIYAMGWYRQAPGKERELVATISSGTRTYYADSVKGRFTMSRDNAKNTVYLQMNSLKPEDTAVYYCAKTYATRHAYWAGTRYEDDYWGQGTQVTVSS as well?
high polyreactivity

Source: the nanobody polyreactivity screen of Harvey et al. (2022)
